tested on: RXF 393 renal; assay: NCI tumour cell line growth inhibition, 48 h; in the data active = GI50 below about 0.43 µM; inactive = the rest
Outcome codes: true (active), false (inactive)

Cc1cc(Nc2cc(N)ncn2)c(=O)n2c1C(=O)NC21CCCCC1
false
Cn1cc(C2=C(N3CCOCC3)C(=O)NC2=O)c2ccccc21
false
O=C(CCc1ccc(O)cc1)N/N=C/c1cc(Br)ccc1O
false
CC(=O)c1cc(O)c2ccccc2c1O
false
Cc1cccc(Cc2cnc(NC(=O)CCc3ccc(C)o3)s2)c1
true
CC(=O)c1nc2ccccc2n1CC(=O)c1cccc(Cl)c1
true

---

system: NCI-H226 lung; experiment: NCI tumour cell line growth inhibition, 48 h
recorded_metric: TGI

C=CC(C)(C)C(=C)C(=O)Nc1ccccc1I
> 100 µM
CNCCN=c1ccc2c3c1c(O)c1c(O)ccc(=O)c1c3[nH]n2CCNCCO
0.336 µM
Cc1ccc(Sc2cc3c(oc2=O)-c2ccccc2OC3O)cc1 (stereo not given)
75 µM
Oc1cc(Br)cc2cc(Cl)cnc12
64.4 µM
CCOC(=O)c1c(-c2cccc3ccccc23)c(C#N)c(=S)n(C2OC(COC(C)=O)C(OC(C)=O)C(OC(C)=O)C2OC(C)=O)c1C (stereo not given)
> 100 µM

---

tested on: SK-OV-3 ovarian; assay: NCI tumour cell line growth inhibition, 48 h
Some compounds, each annotated with its measured TGI.
recorded_metric: TGI (µM)

CCOC(=O)N1CCC(=C2c3ccc(Cl)cc3CCc3cccnc32)CC1
29.1
CCC[CH2][Sn]1([CH2]CCC)[O]CC(C)[O]1 (stereo not given)
10.4
CCCCCn1c(C)cc(/C=C\c2ccc3cc(C)ccc3[n+]2C)c1C
0.853
C=C1C(=O)OC2CC3(C)OC3CC/C(C)=C/C(OC(C)=O)C12 (stereo not given)
37
CS(=O)(=O)N(c1cc(-c2ccc3ncnc(Nc4cccc(Cl)c4)c3c2)cnc1Cl)S(C)(=O)=O
1.81
CCN1CCC(O)(/C=C/c2ccc(OC)cc2)C(C(=O)/C=C/c2ccc(OC)cc2)C1 (stereo not given)
22.5

---

Measured TGI of individual entries
tested on: 786-0 renal; test: NCI tumour cell line growth inhibition, 48 h
recorded_metric: TGI (µM)

C[C@@H](Nc1nc(Nc2ccc(F)c(Cl)c2)nc2ccccc12)C1CC1
3.45
Cc1cc(C(=O)c2ccccc2)c(C)c2c1[nH]c1ccc(Cl)cc12
3.51
COC(=O)C1=C(C(=O)OC)SC2(S1)C(C(=O)OC)=C(C(=O)OC)Sc1c2ssc1=NC(C)(C)C
2.62

---

tested on: OVCAR-5 ovarian; test: NCI tumour cell line growth inhibition, 48 h
// values below are reported TGI
recorded_metric: TGI (µM)

CC1(C)C(=O)/C(=C\c2cccnc2)C[C@]2(C)[C@H]3CC[C@@H]4[C@@H](C(=O)/C=C/c5ccncc5)CC[C@@]4(C)[C@]3(C)CC[C@@H]12
5.36
COC(=O)C1=C(C(=O)OC)SC2(S1)C(C(=O)OC)=C(C(=O)OC)Sc1c2ssc1=NC(C)(C)C
3.68
CCN1CCC(O)(/C=C/c2ccc(C(C)C)cc2)C(C(=O)/C=C/c2ccc(C(C)C)cc2)C1 (stereo not given)
12

---

molecules and their reported GI50
system: UO-31 renal; assay: NCI tumour cell line growth inhibition, 48 h
recorded_metric: GI50

O=Nc1c(-c2c(O)[nH]c3ccc(Br)cc23)[nH]c2ccccc12
2.81 µM
CC(=C/c1ccccc1)/C=C1/NC(=S)N(/C=C2\C(=O)Oc3ccccc3C2=O)C1=O
91.7 µM
O=C1C(Cl)=C(Nc2cccc(C(F)(F)F)c2)C(=O)N1Cc1ccc(Cl)cc1
1.11 µM
Cc1c(Cl)cccc1NC(=O)c1sc2nc3c(cc2c1N)CCCCC3
1.65 µM
CC(O)c1cc(C(=O)N[C@@H](C)Cn2ccc(-c3ccc(C#N)c(Cl)c3)n2)n[nH]1 (stereo not given in full)
35.1 µM

---

tested on: CCRF-CEM leukemia; assay: NCI tumour cell line growth inhibition, 48 h; in the data active = GI50 below about 0.43 µM; inactive = the rest
*1 amine or outer side, *2 acyl side, *3 side chain or, on linkers, in order; H or OH if unused. Where a SMILES comes first, the peptide text is derived from it. Bridges are numbered along the chain shown (N, C = ends). Roman numbers before positions name the chains, in order. [ ]: non-standard residue; d: D form. Actinocin(9to1) = Cc1c2oc3c(C)ccc(C(=O)[*:1])c3nc-2c(C(=O)[*:2])c(N)c1=O; NMeF = CN[CH](Cc1ccccc1)C(=O)O; Sar = CNCC(=O)O
Outcomes: active, inactive

NC(=S)NN=C1CSSC1
inactive
COc1c(B(O)O)cc(F)cc1-c1nc2ccc3[nH]ncc3c2c2c1CCCC2
inactive
Nc1ncc(-c2cccc(S(N)(=O)=O)c2)c2scc(-c3ccc(F)c(Cl)c3)c12
inactive
CC(=O)c1cc(O)c2ccccc2c1O
inactive
COc1ccc(Cn2cc3c(c2-c2cc(OC)c(OC)c(OC)c2)CCc2cnoc2-3)cc1
active
CCN(Cc1c(Cl)cccc1Cl)c1ccc(CO)c(Cl)c1
inactive
N#CC1C=Cc2c(ccc3ccccc23)N1C(=O)c1ccccc1 (stereo not given)
active
Cc1cc(Nc2cc(N)ncn2)c(=O)n2c1C(=O)NC21CCCCC1
inactive
C=C1C(=O)O[C@H]2[C@H]1CC/C(COC(=O)NCc1ccc(Cn3c(=O)sn(-c4ccccc4)c3=O)cc1)=C\CC[C@@]1(C)O[C@@H]21
inactive
C=CC(COC(c1ccccc1)(c1ccccc1)c1ccccc1)N(CC)CC (stereo not given)
inactive
O=C(c1ccccc1)c1c(C(F)(F)F)n([O-])c2ccc(C(F)(F)F)cc2[n+]1=O
active
CCCCCCCCCCCCCCCC1=NC(C)(C)CN1C(C)C
inactive
Cc1c2oc3c(C)ccc(C(=O)NC4C(=O)NC(C(C)C)C(=O)N5CCCC5C(=O)N(C)CC(=O)N(C)C(Cc5ccccc5)C(=O)OC4C)c3nc-2c(C(=O)NC2C(=O)NC(C(C)C)C(=O)N3CCCC3C(=O)N(C)CC(=O)N(C)C(Cc3ccccc3)C(=O)OC2C)c(N)c1=O (stereo not given) (I: TVP[Sar][NMeF] / II: TVP[Sar][NMeF]; ester I:1-I:C, II:1-II:C; linker I:N-II:N via Actinocin(9to1); configuration not given here)
active
CCN(CC)C(=S)[S][Bi]([S]C(=S)N(CC)CC)[S]C(=S)N(CC)CC
active
CCC[CH2][Sn]1([CH2]CCC)[O]CC(C)[O]1 (stereo not given)
active
COc1cccc2c1n([O-])c1cccc(OC)c1[n+]2=O
inactive
CN(C)CCCn1c(-c2nonc2N)nc2cnccc21
inactive
COc1ccc2nc3cc(Cl)ccc3c(NCCNc3c4ccc(Cl)cc4nc4ccc(OC)cc34)c2c1
inactive
Cc1ccc(-c2cc(O)c(-c3ccc(C)cc3C)cc2O)c(C)c1
inactive
CC1=NN(c2nc(N)nc(/C=C\c3ccc([N+](=O)[O-])s3)n2)C(C)(C)C1
inactive

---

system: MDA-MB-435; assay: NCI tumour cell line growth inhibition, 48 h
// TGI lookup, one value per entry
recorded_metric: TGI (µM)

CCOc1ccc2c(c1)c(=O)c1c(NCCN(CC)CC)ccc3nnn2c31
32.5
CC(C)(C)c1ccc(NS(=O)(=O)c2ccc3nc(NC(=O)c4cnccn4)[nH]c3c2)cc1
1.53
Cc1cc(I)cc(CN(C)CCCN2CCN(C)CC2)c1O
31.4
COc1cc(-c2csc(NC(=O)Nc3cc(Cl)cc(Cl)c3)n2)cc(OC)c1OC
3.96

---

Quick reference: TGI of the listed items.
tested on: RXF-631 renal; test: NCI tumour cell line growth inhibition, 48 h
recorded_metric: TGI

CN1C/C(=C\C=C\c2ccccc2)C(=O)/C(=C/C=C/c2ccccc2)C1
> 100 µM
O=C(CCC(=O)C1CCC/C1=N/O)Nc1ccc(Cl)cc1 (stereo not given)
> 100 µM
CC1(C)N=C(c2ccccn2)C(c2ccccn2)=NC1(C)C
> 100 µM
Cn1c(=O)c2/c(n(C)c1=O)=N\C=c1\c(=O)n(C)c(=O)n(C)\c1=N\C=2
> 100 µM
CC1(C)CC(N(C(=O)/C=C/c2ccc([N+](=O)[O-])o2)C2CCCCC2)CC(C)(C)N1
23.4 µM

---

Each entry below carries its recorded TGI.
system: MCF7 breast; experiment: NCI tumour cell line growth inhibition, 48 h
*1 amine or outer side, *2 acyl side, *3 side chain or, on linkers, in order; H or OH if unused. Where a SMILES comes first, the peptide text is derived from it. Bridges are numbered along the chain shown (N, C = ends). Roman numbers before positions name the chains, in order. [ ]: non-standard residue; d: D form. Actinocin(9to1) = Cc1c2oc3c(C)ccc(C(=O)[*:1])c3nc-2c(C(=O)[*:2])c(N)c1=O; NMeF = CN[CH](Cc1ccccc1)C(=O)O; Sar = CNCC(=O)O
recorded_metric: TGI

O=C(O)C(=O)/C=C(\O)c1ccc(Br)cc1
> 100 µM
Cn1cc(C2=C(N3CCOCC3)C(=O)NC2=O)c2ccccc21
> 25 µM
Cc1c2oc3c(C)ccc(C(=O)NC4C(=O)NC(C(C)C)C(=O)N5CCCC5C(=O)N(C)CC(=O)N(C)C(Cc5ccccc5)C(=O)OC4C)c3nc-2c(C(=O)NC2C(=O)NC(C(C)C)C(=O)N3CCCC3C(=O)N(C)CC(=O)N(C)C(Cc3ccccc3)C(=O)OC2C)c(N)c1=O (stereo unspecified) (I: TVP[Sar][NMeF] / II: TVP[Sar][NMeF]; ester I:1-I:C, II:1-II:C; linker I:N-II:N via Actinocin(9to1); configuration not given here)
0.0136 µM
C[C@H]1COC2=C1C(=O)C(=O)c1c2ccc2c1CCCC2(C)C
7.88 µM
C=C(C)CNC(=S)N(N)c1ccc2ccccc2c1
> 100 µM
CN1CCN(C2=CC(=O)c3c(O)ccc(O)c3C2=O)CC1
1.18 µM
C=C1CN(C2=NCCO2)C1
> 100 µM
CC(C)(C)OC(=O)NCC(=O)N1CCN(C(=O)CNC(=O)OC(C)(C)C)CC1
> 100 µM
CSc1scc2c1/C(=N/NC(N)=O)CCC2
> 100 µM
CC(C)(C)CC(C)(C)c1ccc(O)c(C[N+](C)(C)[O-])c1
> 100 µM
Cc1ccc(N=C2C(=Nc3ccc(C)cc3)N(c3ccc(C)cc3)C(=S)N2C(=O)c2ccccc2)cc1
> 100 µM

These measurements were taken from PubChem BioAssay (NCI).
